# Target under test: T1, biotin-labeled human CD137 fused to human IgG1 Fc fragment (human, biotin-labeled)
# T1 construct: Immobilised on streptavidin beads through biotin; also called human CD137-Fc; biotin-human CD137-Fc
# T1 sequence (chain, as listed by the source limits assumed): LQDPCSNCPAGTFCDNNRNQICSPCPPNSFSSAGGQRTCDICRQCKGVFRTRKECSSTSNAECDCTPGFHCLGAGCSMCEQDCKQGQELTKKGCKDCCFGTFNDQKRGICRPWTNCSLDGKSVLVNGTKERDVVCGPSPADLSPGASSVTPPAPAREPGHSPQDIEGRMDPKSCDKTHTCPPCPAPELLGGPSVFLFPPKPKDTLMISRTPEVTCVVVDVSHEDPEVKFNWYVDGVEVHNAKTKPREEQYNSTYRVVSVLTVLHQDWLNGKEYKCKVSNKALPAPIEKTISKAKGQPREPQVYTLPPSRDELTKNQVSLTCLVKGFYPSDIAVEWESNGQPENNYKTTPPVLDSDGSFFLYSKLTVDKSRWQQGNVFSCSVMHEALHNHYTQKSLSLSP
# Procedure summary: bead ELISA, IgG on biotin-human CD137-Fc on streptavidin beads, no free CD3e
Note to self: use True only for ELISA signal, free CD3e 0 pmol/well readings below 60000; a reading exactly at 60000 still gets False.

>>> assigned_label("dBBDu205 (antibody, human IgG1, V domains shown, IgG: VH joined to human IgG1 CH1-Fc, GLS3000 as light chain) VH: QVQLVESGGGLVQPGRSLRLSCAASGFTFSNAWMHWVRQAPGKGLEWVAQIKDRSQLYAAYYAPSVKGRFTISRDDSKNSIYLQMNSLKTEDTAVYYCHYVHYASASTVLPAFGVDAWGQGTTVTVSS VL: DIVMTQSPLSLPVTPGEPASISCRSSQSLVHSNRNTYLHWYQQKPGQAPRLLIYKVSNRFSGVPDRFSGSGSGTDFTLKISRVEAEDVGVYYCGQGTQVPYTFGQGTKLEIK")
"True"
>>> assigned_label("dBBDu167 (antibody, human IgG1, V domains shown, IgG: VH joined to human IgG1 CH1-Fc, GLS3000 as light chain) VH: QVQLVESGGGLVQPGRSLRLSCAASGFTFSNAWMHWVRQAPGKGLEWVAQIKDKGNLYAAYYAPSVKGRFTISRDDSKNSIYLQMNSLKTEDTAVYYCHYVHYASAGGGLPGFGVDAWGQGTTVTVSS VL: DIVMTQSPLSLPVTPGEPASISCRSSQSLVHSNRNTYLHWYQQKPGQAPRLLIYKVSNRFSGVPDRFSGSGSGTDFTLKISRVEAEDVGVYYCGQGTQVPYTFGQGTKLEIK")
"True"
>>> assigned_label("dBBDu127 (antibody, human IgG1, V domains shown, IgG: VH joined to human IgG1 CH1-Fc, GLS3000 as light chain; also called DXDU01_3_#051; DXDU01_3 #051) VH: QVQLVESGGGLVQPGRSLRLSCAASGFTFSNAWMHWVRQAPGKGLEWVAQIKDRGQQYNAYYAPSVKGRFTISRDDSKNSIYLQMNSLKTEDTAVYYCHYVHYASASSVLPGYGVDAWGQGTTVTVSS VL: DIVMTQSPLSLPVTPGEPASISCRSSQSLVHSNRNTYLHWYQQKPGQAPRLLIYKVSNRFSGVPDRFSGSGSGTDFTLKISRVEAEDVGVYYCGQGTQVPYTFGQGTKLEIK")
"True"
>>> assigned_label("dBBDu197 (antibody, human IgG1, V domains shown, IgG: VH joined to human IgG1 CH1-Fc, GLS3000 as light chain) VH: QVQLVESGGGLVQPGRSLRLSCAASGFTFSNAWMHWVRQAPGKGLEWVAQIKDRSNAYAAYYAPSVKGRFTISRDDSKNSIYLQMNSLKTEDTAVYYCHYVHYASASTVLPAFGVDAWGQGTTVTVSS VL: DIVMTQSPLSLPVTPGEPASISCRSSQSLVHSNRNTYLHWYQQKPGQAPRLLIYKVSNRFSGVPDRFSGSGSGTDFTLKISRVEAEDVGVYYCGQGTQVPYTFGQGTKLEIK")
"True"
>>> assigned_label("dBBDu196 (antibody, human IgG1, V domains shown, IgG: VH joined to human IgG1 CH1-Fc, GLS3000 as light chain) VH: QVQLVESGGGLVQPGRSLRLSCAASGFTFSNAWMHWVRQAPGKGLEWVAQIKDRGNAYNAYYAESVKGRFTISRDDSKNSIYLQMNSLKTEDTAVYYCHYVHYASASTVLPAFGVDAWGQGTTVTVSS VL: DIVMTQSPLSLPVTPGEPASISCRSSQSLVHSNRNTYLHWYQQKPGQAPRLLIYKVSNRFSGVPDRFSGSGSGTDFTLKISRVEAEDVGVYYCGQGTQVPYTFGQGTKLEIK")
"True"
>>> assigned_label("Du115/DUL008 (antibody, V domains shown, Human IgG1 format; also called dBBDu_115 with L008) VH: QVQLVESGGGLVQPGRSLRLSCAASGFTFSNAWMHWVRQAPGKGLEWVAQIKDKANSYNTYYAPSVKGRFTISRDDSKNSIYLQMNSLKTEDTAVYYCRYVHYGSSYGFLFAGYGVDAWGQGTTVTVSS VL: DIVMTQSPLSLPVTPGEPASISCQSSEELLHANRKTYLHWYQQKPGQAPRLLIYKVQNRFSGVPDRFSGSGSGTDFTLKISRVEAEDVGVYYCAQGTATPFTFGQGTKLEIK")
"False"
>>> assigned_label("dBBDu217 (antibody, human IgG1, V domains shown, IgG: VH joined to human IgG1 CH1-Fc, GLS3000 as light chain) VH: QVQLVESGGGLVQPGRSLRLSCAASGFTFSNAWMHWVRQAPGKGLEWVAQIKDRQQGYATYYAPSVKGRFTISRDDSKNSIYLQMNSLKTEDTAVYYCRFVHYHLAGYGYYGVDAWGQGTTVTVSS VL: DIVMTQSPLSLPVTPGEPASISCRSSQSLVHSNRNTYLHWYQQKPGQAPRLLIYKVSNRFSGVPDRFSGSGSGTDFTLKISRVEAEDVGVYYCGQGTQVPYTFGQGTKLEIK")
"True"
>>> assigned_label("dBBDu126 (antibody, human IgG1, V domains shown, IgG: VH joined to human IgG1 CH1-Fc, GLS3000 as light chain; also called DADU01_3_#001; DADU01_3 #001) VH: QVQLVESGGGLVQPGRSLRLSCAASGFTFSIAWMHWVRQAPGKGLEWVAQIKDRVNAYEAYYAPSVKGRFTISRDDSKNSIYLQMNSLKTEDTAVYYCRYVHYASYYDLLGYGGVDAWGQGTTVTVSS VL: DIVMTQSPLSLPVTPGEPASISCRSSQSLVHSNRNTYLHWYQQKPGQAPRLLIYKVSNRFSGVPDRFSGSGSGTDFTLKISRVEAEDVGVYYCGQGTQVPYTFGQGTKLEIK")
"False"

Where do these numbers come from? They come from patent US20240270846A1.
